Where do these numbers come from? They come from patent US8816082B2.

Protein target, amino acids: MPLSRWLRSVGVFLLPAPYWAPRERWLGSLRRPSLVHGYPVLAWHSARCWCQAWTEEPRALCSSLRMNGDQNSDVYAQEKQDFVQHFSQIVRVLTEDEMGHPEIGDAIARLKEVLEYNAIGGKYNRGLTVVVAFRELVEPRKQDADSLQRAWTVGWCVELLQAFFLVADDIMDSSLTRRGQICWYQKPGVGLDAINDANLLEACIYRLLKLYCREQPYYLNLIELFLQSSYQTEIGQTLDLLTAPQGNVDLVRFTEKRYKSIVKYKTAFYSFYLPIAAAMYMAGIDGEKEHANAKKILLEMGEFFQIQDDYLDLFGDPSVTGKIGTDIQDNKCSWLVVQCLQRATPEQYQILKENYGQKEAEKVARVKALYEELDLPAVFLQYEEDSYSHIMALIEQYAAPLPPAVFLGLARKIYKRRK
MEASURED_METRIC: IC50 (µM)

molecule="O=P(O)(O)C(F)(Cc1cncc(-c2ccc3[nH]ncc3c2)c1)P(=O)(O)O [Compound 7]" measured_metric=IC50 measured=0.15

---

- TGT: human farnesyl pyrophosphate synthase (hFPPS) (Homo sapiens, UniProt P14324)
pIC50: −log10 of the molar value.
MEASURED_METRIC: pIC50

molecule_smiles=O=P(O)(O)C(F)(Cc1cncc(-c2ccc3[nH]ncc3c2)c1)P(=O)(O)O measured_metric=pIC50 measured=6.19

---

The entries below come with measured inhibition at 1 µM values attached.
- TGT: hFPPS (Homo sapiens, UniProt P14324)
- Sequence (P14324 1-419): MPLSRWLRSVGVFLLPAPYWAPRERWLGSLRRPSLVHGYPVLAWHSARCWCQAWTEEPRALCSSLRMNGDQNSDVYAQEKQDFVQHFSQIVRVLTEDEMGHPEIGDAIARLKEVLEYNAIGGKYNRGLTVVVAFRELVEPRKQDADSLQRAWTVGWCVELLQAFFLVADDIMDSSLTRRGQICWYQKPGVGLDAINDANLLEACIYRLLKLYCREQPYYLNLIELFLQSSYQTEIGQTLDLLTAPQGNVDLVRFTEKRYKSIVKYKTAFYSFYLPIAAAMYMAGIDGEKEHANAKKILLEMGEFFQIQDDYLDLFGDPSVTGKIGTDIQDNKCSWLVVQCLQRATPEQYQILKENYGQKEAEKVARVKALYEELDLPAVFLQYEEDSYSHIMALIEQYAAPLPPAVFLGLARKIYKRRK
- TEST_DETAILS: hFPPS inhibition, high throughput mode at fixed concentration, more optimized assay (purer hFPPS, 10 min pre-incubation)
- EXPERIMENTAL_SETUP: read-out: % Inhibition at 1 μM
MEASURED_METRIC: inhibition at 1 µM (%)

compound="O=P(O)(O)C(Nc1cccc(-c2ccccc2)n1)P(=O)(O)O [Compound 12]" tgt="hFPPS (Homo sapiens, UniProt P14324)" readout_units=% measured=35
compound="O=P(O)(O)C(Nc1cc(-c2ccc(Cl)cc2)ccn1)P(=O)(O)O [Compound 40]" tgt="hFPPS (Homo sapiens, UniProt P14324)" readout_units=% measured=90
compound="O=P(O)(O)C(Nc1cc(-c2ccc(F)cc2)ccn1)P(=O)(O)O [Compound 42]" tgt="hFPPS (Homo sapiens, UniProt P14324)" readout_units=% measured=95
compound="O=P(O)(O)C(Nc1cc(-c2ccc3ccccc3c2)ccn1)P(=O)(O)O [Compound 26]" tgt="hFPPS (Homo sapiens, UniProt P14324)" readout_units=% measured=65
compound="O=P(O)(O)C(Nc1cc(-c2ccc3[nH]ncc3c2)ccn1)P(=O)(O)O [Compound 14]" tgt="hFPPS (Homo sapiens, UniProt P14324)" readout_units=% measured=45
